Assay Explanation: Study #2 Phase 1: effect of food (fed vs fasted) on pharmacokinetics of Compound 1A after 400 mg oral Compound 1;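 also: cohort 1b subjects took one oral dose in both fed and fasted states, across two separate periods (E, F) within the single ascending dose phase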
Experimental Context: human, plasma, po, 400 mg, median tmax, 400 mg oral Compound 1, fed conditions
Readout Name: Tmax (h)
# number only, unit h dropped from output

For this compound ( Nc1ncccc1-c1cc(Cc2ccc(COc3ccccn3)cc2)no1 [Compound 1A] ), measured Tmax is 3.75

---

Assay Explanation: Compound 1 pH solubility at room temperature
Type: physicochemical
Experimental Context: pH 6, aqueous buffer, Study A, pH 6
Readout Name: solubility
Please state the number and follow it with the unit.

For this compound ( Nc1c(-c2cc(Cc3ccc(COc4ccccn4)cc3)no2)ccc[n+]1COP(=O)([O-])O ), measured solubility is 758 µg/mL

---

Assay Explanation: clinical
Experimental Context: human, plasma, po, 400 mg
Readout Name: AUC(0-inf) (µg·h/mL)
# number only, unit µg·h/mL dropped from output

For this compound ( Nc1ncccc1-c1cc(Cc2ccc(COc3ccccn3)cc2)no1 ), measured AUC(0-inf) is 177

---

Assay Explanation: Study #1 Phase 1: plasma and urine pharmacokinetics of Compound 1 and Compound 1A after IV infusion of Compound 1 (SAD, MAD, loading regimen)
Experimental Context: both, human, plasma, 1000 mg, AUC(0-24), Cohort 11: Compound 1 1,000 mg/1 hr IV, single dose, geometric mean
Readout Name: AUC(0-t)
Please state the number and follow it with the unit.

For this molecule ( Nc1ncccc1-c1cc(Cc2ccc(COc3ccccn3)cc2)no1 ), measured AUC(0-t) is 134 µg·h/mL

---

Assay Explanation: Study #1 Phase 1: plasma and urine pharmacokinetics of Compound 1 and Compound 1A after IV infusion of Compound 1 (SAD, MAD, loading regimen)
Experimental Context: both, human, plasma, 50 mg, Tmax, Cohort 7: Compound 1 50 mg/3 hr IV QD × 14 days, Day 14, median
Readout Name: Tmax (h)
# number only, unit h dropped from output

For this compound ( Nc1ncccc1-c1cc(Cc2ccc(COc3ccccn3)cc2)no1 ), measured Tmax is 3

---

Assay Explanation: clinical
Experimental Context: both, human, in vivo, iv, geometric mean T1/2, range across treatments
Readout Name: half-life

For this compound ( Nc1ncccc1-c1cc(Cc2ccc(COc3ccccn3)cc2)no1 ), measured half-life is 39.2 to 74.9 h

---

Assay Explanation: Study #1 Phase 1: plasma and urine pharmacokinetics of Compound 1 and Compound 1A after IV infusion of Compound 1 (SAD, MAD, loading regimen)
Experimental Context: both, human, plasma, 150 mg, Tmax, Cohort 8: Compound 1 150 mg/3 hr IV QD × 14 days, Day 14, median
Readout Name: Tmax

For this compound ( Nc1ncccc1-c1cc(Cc2ccc(COc3ccccn3)cc2)no1 ), measured Tmax is 3.02 h

---

Assay Explanation: Study #2 Phase 1: pharmacokinetics after single IV and single/multiple oral doses of Compound 1, absolute oral bioavailability
Experimental Context: human, plasma, po, geometric mean t1/2, range across treatments, 4 oral treatments of Compound 1
Readout Name: half-life

For this compound ( Nc1ncccc1-c1cc(Cc2ccc(COc3ccccn3)cc2)no1 ), measured half-life is 44.9 to 64.7 h

---

Assay Explanation: clinical
Experimental Context: human, plasma, po, 400 mg
Readout Name: CL/F (mL/min/kg)
# number only, unit mL/min/kg dropped from output

For this compound ( Nc1ncccc1-c1cc(Cc2ccc(COc3ccccn3)cc2)no1 ), measured CL/F is 0.418

---

Assay Explanation: Study #1 Phase 1: plasma and urine pharmacokinetics of Compound 1 and Compound 1A after IV infusion of Compound 1 (SAD, MAD, loading regimen)
Experimental Context: both, human, plasma, 600 mg, Tmax, Cohort 12 loading regimen: Compound 1 600 mg/1 hr IV QD, Day 4, median
Readout Name: Tmax

For this compound ( Nc1ncccc1-c1cc(Cc2ccc(COc3ccccn3)cc2)no1 [Compound 1A] ), measured Tmax is 1 h

---

Assay Explanation: Study #1 Phase 1: plasma and urine pharmacokinetics of Compound 1 and Compound 1A after IV infusion of Compound 1 (SAD, MAD, loading regimen)
Experimental Context: both, human, plasma, 300 mg, AUC(0-24), Cohort 9: Compound 1 300 mg/3 hr IV QD × 14 days, Day 14, geometric mean
Readout Name: AUC(0-t) (µg·h/mL)
# number only, unit µg·h/mL dropped from output

For this molecule ( Nc1ncccc1-c1cc(Cc2ccc(COc3ccccn3)cc2)no1 [Compound 1A] ), measured AUC(0-t) is 118

---

Assay Explanation: Study #2 Phase 1: pharmacokinetics after single IV and single/multiple oral doses of Compound 1, absolute oral bioavailability
Experimental Context: human, plasma, po, 500 mg, Tmax, Day 7, Cohort 4, 500 mg Oral Solution QD × 14 Days, fed, median
Readout Name: Tmax (h)
# number only, unit h dropped from output

For this molecule ( Nc1ncccc1-c1cc(Cc2ccc(COc3ccccn3)cc2)no1 [Compound 1A] ), measured Tmax is 2

---

Assay Explanation: Study #2 Phase 1: pharmacokinetics after single IV and single/multiple oral doses of Compound 1, absolute oral bioavailability;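 also: phase 1 study design: one IV dose, then escalating single oral doses, fed versus fasted single oral dosing, and once-daily oral dosing over 14 days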
Experimental Context: human, plasma, iv, 200 mg, geometric mean t1/2, IV treatment, 200 mg Compound 1 over 3 hrs
Readout Name: half-life (min)
# number only, unit min dropped from output

For this compound ( Nc1ncccc1-c1cc(Cc2ccc(COc3ccccn3)cc2)no1 ), measured half-life is 2950

---

Assay Explanation: Compound 1 pH solubility at room temperature
Format: physicochemical
Experimental Context: pH 8.5, aqueous buffer, Study A, pH 8.5, saturation not achieved
Readout Name: solubility

For this compound ( Nc1c(-c2cc(Cc3ccc(COc4ccccn4)cc3)no2)ccc[n+]1COP(=O)([O-])O ), measured solubility is > 80 mg/mL

---

Assay Explanation: Study #1 Phase 1: plasma and urine pharmacokinetics of Compound 1 and Compound 1A after IV infusion of Compound 1 (SAD, MAD, loading regimen)
Experimental Context: both, human, plasma, 1000 mg, Tmax, Cohort 11: Compound 1 1,000 mg/0.5 hr IV, single dose, median
Readout Name: Tmax (min)
# number only, unit min dropped from output

For this compound ( Nc1ncccc1-c1cc(Cc2ccc(COc3ccccn3)cc2)no1 [Compound 1A] ), measured Tmax is 31.2

---

Assay Explanation: clinical
Experimental Context: human, plasma, po, 400 mg
Readout Name: half-life
Please state the number and follow it with the unit.

For this compound ( Nc1ncccc1-c1cc(Cc2ccc(COc3ccccn3)cc2)no1 [Compound 1A] ), measured half-life is 64.7 h

---

Assay Explanation: clinical
Experimental Context: human, plasma, po, 100 mg
Readout Name: Cmax (ng/mL)
# number only, unit ng/mL dropped from output

For this compound ( Nc1ncccc1-c1cc(Cc2ccc(COc3ccccn3)cc2)no1 ), measured Cmax is 1300

---

Assay Explanation: Study #1 Phase 1: plasma and urine pharmacokinetics of Compound 1 and Compound 1A after IV infusion of Compound 1 (SAD, MAD, loading regimen)
Experimental Context: both, human, plasma, 150 mg, Tmax, Cohort 8: Compound 1 150 mg/3 hr IV QD × 14 days, Day 7, median
Readout Name: Tmax
Please state the number and follow it with the unit.

For this compound ( Nc1ncccc1-c1cc(Cc2ccc(COc3ccccn3)cc2)no1 [Compound 1A] ), measured Tmax is 3 h

---

Assay Explanation: Study #1 Phase 1: plasma and urine pharmacokinetics of Compound 1 and Compound 1A after IV infusion of Compound 1 (SAD, MAD, loading regimen)
Experimental Context: both, human, plasma, 1000 mg, AUC(0-t), Cohort 11: Compound 1 1,000 mg/1 hr IV, single dose, geometric mean
Readout Name: AUC(0-t) (µg·h/mL)
# number only, unit µg·h/mL dropped from output

For this compound ( Nc1ncccc1-c1cc(Cc2ccc(COc3ccccn3)cc2)no1 [Compound 1A] ), measured AUC(0-t) is 481

---

Assay Explanation: Study #1 Phase 1: plasma and urine pharmacokinetics of Compound 1 and Compound 1A after IV infusion of Compound 1 (SAD, MAD, loading regimen)
Experimental Context: both, human, plasma, 10 mg, AUC(0-t), Cohort 1: Compound 1 10 mg/3 hr IV, single dose, geometric mean [geometric %CV]
Readout Name: AUC(0-t) (ng·h/mL)
# number only, unit ng·h/mL dropped from output

For this compound ( Nc1ncccc1-c1cc(Cc2ccc(COc3ccccn3)cc2)no1 ), measured AUC(0-t) is 2380

---

Assay Explanation: clinical
Experimental Context: human, plasma, po, 100 mg
Readout Name: AUC(0-inf) (ng·h/mL)
# number only, unit ng·h/mL dropped from output

For this compound ( Nc1ncccc1-c1cc(Cc2ccc(COc3ccccn3)cc2)no1 ), measured AUC(0-inf) is 39600

The reported measurements were obtained from patent US20210290644A1.
